Data provenance is PubChem BioAssay.

# Tested on: Lefty1
# Assay: Lefty1 protein binding to printed compounds – biochemical, small-molecule microarray, 635/667 nm fluorescence, primary screen (AID 1139)
# Condition details: fluorescence 635/667, higher = more signal
Quantity: composite z-score
Give bare numbers.

Solved cases below.
{"columns": ["Compound", "composite z-score"],
 "data": [
  ["COc1ccc(C#Cc2ccc3c(c2)[C@]2(C(=O)N3)[C@H](C(=O)O)[C@H]3C(=O)O[C@H](c4ccccc4)[C@H](c4ccccc4)N3[C@@H]2c2ccc(O)cc2)cc1", -0.422],
  ["COCCOC(=O)N1C(=O)[C@@]2(c3ccccc31)[C@H](c1ccc(O)cc1)N1[C@H](c3ccccc3)[C@H](c3ccccc3)OC(=O)[C@H]1[C@@H]2C(=O)N1CCN(c2ncccn2)CC1", 0.806],
  ["C=C(COC)/C(=C/C[C@H](OC(=O)c1ccncc1)c1ccccc1OCCO)c1cc(C(=O)OC)ccc1OC", 1.32],
  ["CC[C@@H]1O[Si](C(C)C)(C(C)C)c2c1cc(-c1cc(C)c(OC)c(C)c1)nc2-c1ccc(Oc2ccccc2)cc1", 0.287],
  ["CCOC(=O)C[C@H]1[C@H](OC(=O)c2cc3ccccc3oc2=O)[C@@H](NC(=O)CC(C)C)c2cc(OCCCO)ccc2N1C(=O)c1ccc2ccccc2n1", 0.903]
]}

# map each compound to its composite z-score
1. CCCC[C@@H](O)C1=C(COC)C[C@H]2C(=O)N(C)C(=O)[C@H]2[C@H]1CO
2. COC(=O)[C@@]1(Cc2ccccc2)[C@H]2c3cc(C(=O)N4CCCC4)n(CCc4ccccn4)c3C[C@H]2CN1C(=O)c1ccccc1
3. CC(C)c1ccc(NN2C(C(O)c3ccc(F)cc3)C=CC3C(=O)N(c4ccccc4)C(=O)C32)cc1 (stereo not given)
4. C=CC[C@H](OC(=O)Nc1ccc(SC)cc1)c1ccc(O)c2ccccc12

Reply:
1.14
0.0814
0.138
1.08

====

Kindly supply the reported z-score values for the records listed here.
# Assay: JC-1 mitochondrial signal, unstimulated myeloma cells – cell-based, JC-1 fluorescence, RPMI8226, 24 h, 100 nL compound, profiling panel (AID 1169); note: test concentration not given here
# Condition details: JC-1 mitochondrial potential fluorescence, higher = more signal

Solved cases below.
{"columns": ["Molecule", "z-score"],
 "data": [
  ["COCCCNC(=O)[C@@]1(CCC(=O)OC(C)(C)C)N=C(c2ccc(OCCCO)cc2)O[C@H]1c1ccccc1N=[N+]=[N-]", -1.15],
  ["COC(=O)[C@@]1(Cc2ccc(OC)cc2)[C@H]2c3cc(C(=O)N4CCCC4)n(CCc4c[nH]c5ccc(O)cc45)c3C[C@H]2CN1C(=O)c1ccccc1", -0.259],
  ["COC(=O)[C@@]1(Cc2ccc(F)cc2)[C@H]2c3cc(C(=O)N(C)C)n(Cc4ccc(OC(F)(F)F)cc4)c3C[C@H]2CN1C(=O)c1ccccc1", -0.0137]
]}

# map each molecule to its z-score
1. [N-]=[N+]=Nc1ccccc1C[C@]1(C(=O)NCC(O)CO)COC(c2ccc(OCCCO)cc2)=N1 (some centres not stated)
2. COc1ccc(CCNC(=O)[C@@]2(Cc3ccccc3I)c3ccccc3C(=O)N(C3CCCCC3)[C@H]2c2ccc(CO)cc2)cc1
3. CC(C)NC(=O)[C@@]1(c2ccc([N+](=O)[O-])cc2)CC(=O)N(C2CCCCC2)[C@@H]1c1ccc(CO)cc1
4. C=CC[C@@H](OC(=O)Nc1ccc(OC)cc1)c1ccc(O)c(F)c1

Reply:
-0.847
-0.184
0.172
0.122
